- Tested on: platelets (human PRP)
- assayDetails: Arachidonic acid-induced platelet aggregation (method of Born)
- Assay type: cell-based
- experimentalContext: Homo sapiens, Platelet, human PRP; 10^-5 M inhibitor; 500 μM arachidonate
inhibition at 10 µM: recorded values
readoutKind: inhibition at 10 µM (%)

[[record]]
molecule = "CCCCCNCC[C@H]1CCC[C@H]1CCCCCCC(=O)O (relative stereo) [Example 8 cis, 15-Azaprostanoic acid]"
readoutkind = "inhibition at 10 µM"
observed = 0

[[record]]
molecule = "CCCCCCCN[C@@H]1CCC[C@H]1CCCCCCC(=O)O (relative stereo) [Example 4 trans, trans-13-azaprostanoic acid]"
readoutkind = "inhibition at 10 µM"
observed = 19

[[record]]
molecule = "CCCCCCCN[C@H]1CCC[C@H]1CCCCCCC(=O)O (relative stereo) [Example 4 cis, cis-13-Azaprostanoic acid]"
readoutkind = "inhibition at 10 µM"
observed = 0

[[record]]
molecule = "CCCCCCCCN[C@H]1CCC[C@H]1CCCCCCC(=O)O (relative stereo) [Example 6 cis, cis-13-Aza-20-homoprostanoic acid]"
readoutkind = "inhibition at 10 µM"
observed = 0

